Provide the reported pIC50 of each item.
Target: NR1/NR2A (Homo sapiens (Human), UniProt Q05586+Q12879)
Sequence (Q12879 23-1464, other chains not shown): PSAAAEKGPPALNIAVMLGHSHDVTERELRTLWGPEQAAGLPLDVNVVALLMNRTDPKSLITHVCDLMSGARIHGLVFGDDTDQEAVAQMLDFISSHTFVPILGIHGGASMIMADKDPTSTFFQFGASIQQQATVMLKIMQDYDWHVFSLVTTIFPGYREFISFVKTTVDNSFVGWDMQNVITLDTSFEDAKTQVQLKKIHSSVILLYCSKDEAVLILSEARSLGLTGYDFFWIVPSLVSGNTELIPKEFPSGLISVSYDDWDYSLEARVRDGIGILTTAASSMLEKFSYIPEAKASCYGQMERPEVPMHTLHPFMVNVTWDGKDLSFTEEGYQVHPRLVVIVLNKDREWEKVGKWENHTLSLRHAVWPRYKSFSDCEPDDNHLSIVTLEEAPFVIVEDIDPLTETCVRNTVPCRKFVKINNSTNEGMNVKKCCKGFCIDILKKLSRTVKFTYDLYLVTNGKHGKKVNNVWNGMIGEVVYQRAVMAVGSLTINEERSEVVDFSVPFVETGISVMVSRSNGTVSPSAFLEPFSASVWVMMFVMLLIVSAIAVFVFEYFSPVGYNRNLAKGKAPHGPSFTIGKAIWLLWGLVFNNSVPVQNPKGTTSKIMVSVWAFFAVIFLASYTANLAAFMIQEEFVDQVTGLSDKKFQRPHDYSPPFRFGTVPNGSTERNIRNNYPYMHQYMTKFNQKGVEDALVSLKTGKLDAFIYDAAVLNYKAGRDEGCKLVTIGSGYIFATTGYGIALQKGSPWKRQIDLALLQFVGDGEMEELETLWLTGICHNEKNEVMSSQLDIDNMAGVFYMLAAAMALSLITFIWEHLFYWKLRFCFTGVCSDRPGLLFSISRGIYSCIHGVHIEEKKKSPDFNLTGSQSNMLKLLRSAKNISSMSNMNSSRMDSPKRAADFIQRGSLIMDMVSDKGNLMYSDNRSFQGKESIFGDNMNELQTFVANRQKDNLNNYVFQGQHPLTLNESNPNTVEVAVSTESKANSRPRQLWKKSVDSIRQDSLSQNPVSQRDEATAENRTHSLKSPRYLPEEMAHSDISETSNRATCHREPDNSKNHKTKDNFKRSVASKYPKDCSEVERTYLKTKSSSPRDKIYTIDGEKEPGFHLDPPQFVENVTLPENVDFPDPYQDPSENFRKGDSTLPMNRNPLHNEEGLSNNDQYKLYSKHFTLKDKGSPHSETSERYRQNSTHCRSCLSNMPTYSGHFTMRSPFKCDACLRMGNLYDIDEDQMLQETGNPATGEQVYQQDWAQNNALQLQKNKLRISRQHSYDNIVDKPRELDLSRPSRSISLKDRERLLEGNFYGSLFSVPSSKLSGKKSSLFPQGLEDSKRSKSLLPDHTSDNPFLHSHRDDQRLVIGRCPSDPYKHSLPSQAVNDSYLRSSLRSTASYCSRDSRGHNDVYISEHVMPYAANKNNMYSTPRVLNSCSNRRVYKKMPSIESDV
Test: FDSS Ca2+ influx inhibition assay in HEK293 cells expressing NR1/NR2A
Format: cell-based
Details: 3 μM glutamate, 3 μM glycine, 1 mM Ca2+, read-out: Binned Activity
pIC50: −log10 of the molar value.

Use the examples below as a reference point.
COc1cc(CNC(=O)c2ccc(CNS(=O)(=O)c3ccc(F)c(Cl)c3)cn2)ccn1; 5.00 to 6.00
Cc1ncc(CNC(=O)c2cnc(CNC(=O)c3cc(F)cc(F)c3)c(C)n2)s1; < 5.00
COc1ccc(CNC(=O)c2ccc(CNS(=O)(=O)c3ccc(F)c(Cl)c3)cn2)cn1; 5.00 to 6.00

Answer for every listed entry: what is its pIC50? The entries follow.
1. Cc1ncc(CNC(=O)c2cnc(CNC(=O)c3cccc(C#N)c3)c(C)n2)s1
2. Cc1ncc(CNC(=O)c2ccc(CNS(=O)(=O)c3ccccc3F)cn2)s1

1: < 5.00; 2: < 5.00
